Value source: patent US5369030A

System: HL-60 cells
TEST_METHOD_NOTES: HL-60 cell growth/proliferation, cells counted with a hemocytometer
Format: cell-based, human
TEST_SETTINGS: Example 3A; 3 μM Cn-L-t-APPD; three days
Method: […] HL-60 cells were treated with 3 μM of Cn-L-t-APPD with acyl chain lengths of C6, C8, C10, C12, C14, C16, and C18 (m=4, 6, 8, 10, 12, 14 and 16) in fresh ehtanol solution or with an ethanol vehicle and cell growth was determined following three days of treatment. Cell growth was quantified using a hemocytometer. […] HL-60 cells (starting cell density of 2×10^5 cells/ml) were treated with different concentrations of C14-L-t-APPD and cells were counted following 24 and 72 hours of treatment. […]
Each entry below lists one item and its recorded cell growth, % of control value.

A selection of reference data follows.
Measured cell growth, % of control, "CCCCCCCCCC(=O)N[C@@H](CO)[C@@H](O)c1ccccc1" : 90%

Measured cell growth, % of control, "CCCCCCCCCCCCCCCC(=O)N[C@@H](CO)[C@@H](O)c1ccccc1" : ~65%

Measured cell growth, % of control, "CCCCCCCC(=O)N[C@@H](CO)[C@@H](O)c1ccccc1" : 104%

More entries:
Measured cell growth, % of control, "CCCCCCCCCCCCCCCCCC(=O)N[C@@H](CO)[C@@H](O)c1ccccc1" : 116%

Measured cell growth, % of control, "CCCCCCCCCCCCCC(=O)N[C@@H](CO)[C@@H](O)c1ccccc1" : ~15%

Measured cell growth, % of control, "CCCCCC(=O)N[C@@H](CO)[C@@H](O)c1ccccc1" : 105%

====

Tested on: HL-60 cells
TEST_METHOD_NOTES: HL-60 cell growth/proliferation, cells counted with a hemocytometer
Format: cell-based, human
TEST_SETTINGS: Example 3C; 3 μM; 108 hours; starting density 2×10^5 cells/ml
READOUT_NAME: cell density (mL⁻¹)
Give a bare numeral; the unit mL⁻¹ is implied.

Measured cell density, "CCCCCCCC(=O)N[C@@H](CO)[C@@H](O)c1ccccc1" : 2.4e+06

Measured cell density, "CCCCCCCCCCCCCCCCCC(=O)N[C@@H](CO)[C@@H](O)c1ccccc1" : 2.3e+06

Measured cell density, "CCCCCC(=O)N[C@@H](CO)[C@@H](O)c1ccccc1" : 2.4e+06

Measured cell density, "CCCCCCCCCCCC(=O)N[C@@H](CO)[C@@H](O)c1ccccc1" : 600000

Measured cell density, "CCCCCCCCCCCCCCCC(=O)N[C@@H](CO)[C@@H](O)c1ccccc1" : 1.2e+06

More entries:
Measured cell density, "CCCCCCCCCCCCCC(=O)N[C@@H](CO)[C@@H](O)c1ccccc1" : 200000

Measured cell density, "CCCCCCCCCC(=O)N[C@@H](CO)[C@@H](O)c1ccccc1" : 2e+06

====

Test system: HL-60 cells
TEST_METHOD_NOTES: HL-60 cell growth/proliferation, cells counted with a hemocytometer
Format: cell-based, human
TEST_SETTINGS: Homo sapiens, HL-60; Example 3B; 50% inhibition of cell growth; 2×10^5 cells/ml; 24 and 72 hours; read-out: IC50%
Protocol: […] HL-60 cells were treated with 3 μM of Cn-L-t-APPD with acyl chain lengths of C6, C8, C10, C12, C14, C16, and C18 (m=4, 6, 8, 10, 12, 14 and 16) in fresh ehtanol solution or with an ethanol vehicle and cell growth was determined following three days of treatment. Cell growth was quantified using a hemocytometer. […] HL-60 cells (starting cell density of 2×10^5 cells/ml) were treated with different concentrations of C14-L-t-APPD and cells were counted following 24 and 72 hours of treatment. […]
pIC50: −log10 of the molar value.
READOUT_NAME: pIC50

Form field, pIC50 with HL-60 cells, item "CCCCCCCCCCCCCC(=O)N[C@@H](CO)[C@@H](O)c1ccccc1" : ~5.70

====

System: HL-60 cells
TEST_METHOD_NOTES: HL-60 cell growth/proliferation, cells counted with a hemocytometer
Assay type: cell-based, human
TEST_SETTINGS: Example 3C; 3 μM; 84 hours; starting density 2×10^5 cells/ml
cell density below 700000 mL⁻¹ gives Not satisfied; cell density at or above it gives Satisfied.

Use the examples below as a reference point.
Given the entry "CCCCCCCCCC(=O)N[C@@H](CO)[C@@H](O)c1ccccc1" , answer whether its cell density meets or surpasses 700000 mL⁻¹. Satisfied

Given the entry "CCCCCCCCCCCCCCCCCC(=O)N[C@@H](CO)[C@@H](O)c1ccccc1" , answer whether its cell density meets or surpasses 700000 mL⁻¹. Satisfied

Given the entry "CCCCCC(=O)N[C@@H](CO)[C@@H](O)c1ccccc1" , answer whether its cell density meets or surpasses 700000 mL⁻¹. Satisfied

Given the entry "CCCCCCCC(=O)N[C@@H](CO)[C@@H](O)c1ccccc1" , answer whether its cell density meets or surpasses 700000 mL⁻¹. Satisfied

Given the entry "CCCCCCCCCCCCCC(=O)N[C@@H](CO)[C@@H](O)c1ccccc1" , answer whether its cell density meets or surpasses 700000 mL⁻¹. Not satisfied

With those in mind, consider the next molecule.
Given the entry "CCCCCCCCCCCC(=O)N[C@@H](CO)[C@@H](O)c1ccccc1" , answer whether its cell density meets or surpasses 700000 mL⁻¹. Not satisfied
